# Lookup of reported pKd keyed by entry
- test_system: Dupixent (IgG4 monoclonal antibody)
- assay_protocol: BLI, biotinylated ligand on sensor; 'Binding affinity (nM)'
Please note pKd is a logarithmic value: minus log10 of concentration in mol/L. Answer with that number alone.

Record excerpt, results attached:
binder: affinity ligand SEQ ID NO: 165 (designed binder, biotinylated (AviTag system)) MDEAAHWEVQGAAYAARGDYDRAIEYYERALELDPNNAWAWEHLGWAYAARGDFDRAIEYYERALELDPDDAHAWFRLGFAYAARGDYDRAIEYYERALELDPEDELARAELESARRARQGQAGQGWAEFRQRLAAIRTRLEALGGSEAELAAFEREIAAFESELQAYAGAGNPEVEALRREAAAIRDELQAYRHNHHHHHHC
pKd: 7.51
--
binder: affinity ligand SEQ ID NO: 157 (designed binder, biotinylated (AviTag system)) MGLAEAAAREAAARAADEAERWYDLGAAYAARGDYDRAIEYYQRALEHDPNDAWAWWELGVAYAARGDYDRAIEYYQRALELDTNNAVAWARLGIAYAARGDYDRAIEYYQRALELDPNNEVARGALEYARRARRHHHHHH
pKd: 8.10
--
binder: affinity ligand SEQ ID NO: 162 (designed binder, biotinylated (AviTag system)) MGLAEAAAREAAARAADEAERWYDLGAAYAARGDYDRAIEYYQRALELDPNDAWAWWELGVAYAARGDYDRAIEYYQRALELDLNNAVAWARLGIAYAARGDYDRAIEYYQRALELDPNNEVARDALEYARRARRHHHHHH
pKd: 7.60
--
binder: affinity ligand SEQ ID NO: 172 (designed binder, biotinylated (AviTag system)) MGDEADRWYDQGAAYAARGDYDRAIEYYQRALELDPNNAWAWWELGVAYAARGDYDRAIEYYQRALELDPNDAVAWSRLGHAYAARGDYDRAIEHYQRALELDPNNEVARHLLEVARRAAACGLNDIFEAQKIEWHEHHHHHH
pKd: 6.67
--
binder: affinity ligand SEQ ID NO: 174 (designed binder, biotinylated (AviTag system)) MGDEADRWYDQGAAYAARGDYDRAIEYYERALELDPNNAWAWWELGVAYAARGDYDRAIEYYQRALELDPNDAVAWARLGHAYAARGDYDRAIEYYQRALELDPNNEAARSNLEYARRAAACGLNDIFEAQKIEWHEHHHHHH
pKd: 6.66

Request the reported pKd associated with affinity ligand SEQ ID NO: 166 (designed binder, biotinylated (AviTag system)) MDEAARWEVQGAAYAARGDYDRAIEYYERVLELDPNDAWAWEHLGWAYAARGDYDRAIEYYERALEVDPDDAHAWFRLGFAYAARGDYDRAMEYYERALELDPEDELARAELESARRARQGQAGQGWAEFRQRLAAIRTRLEALGGSEAELAAFEREIAAFESELQAYAGAGNPEVEALRREAAAIRDELQAYRHNHHHHHHC
6.92

Try this binder next: affinity ligand SEQ ID NO: 167 (designed binder, biotinylated (AviTag system)) MDEAARWEVQGAAYAARGDYDRAIEYYERALELDPNNAWAWEHLGWAYAARGDYDRAIEYYERALELDPDDAHSWFRLGFAYAVRGDYDRAIEYYERALELDPEDELARAELESARRARQGQAGQGWAEFRQRLAAIRTRLEALGGSEAELAAFEREIAAFESELQAYAGAGNPEVEALRREAAAIRDELQAYRHNHHHHHHC
7.51
